Test system: TLR4/NF-κB signaling pathway
Assay: TLR4/NF-κB luciferase reporter assay in AD-293 cells
Assay type: cell-based
Test Conditions: Homo sapiens, AD293; AD-293 reporter cells; 1 μg mL−1 LPS; treated for 16 h
I'd appreciate it if you could supply EC50 values for the items below.
Write it as a number; the unit µM goes unstated.

Ask: Given the compound C=C1CC[C@H]2[C@@](C)(CCC(=O)[C@@]2(C)CO)[C@@H]1C/C=C1/C(=O)OC[C@@H]1Oc1cccc2cccnc12 , write its reported EC50.
Reply: 5.96

Ask: Return reported EC50. Input compound: C=C1CC[C@@H]2[C@](C)(CO)[C@H](O)CC[C@@]2(C)[C@@H]1C/C=C1/C(=O)OC[C@@H]1Oc1cccc2cccnc12 [6b17, (14β)-(Quinolyl-8′-oxy)andrographolide]
Reply: 2.65

Ask: Give the reported value of EC50 for this record: C=C1CC[C@H]2[C@@](C)(CCC(=O)[C@@]2(C)COC(C)=O)[C@@H]1C/C=C1/C(=O)OC[C@@H]1Oc1cccc2cccnc12
Reply: 4.84
